# Test system: catalepsy
# Method summary: Catalepsy, mouse
# Assay type: in vivo
# Experimental context: mouse, po; read-out: Catalepsy MED
Experimental readout: minimal effective dose (mg/kg)

{"Compound": "c1ccc2c(c1)CCc1cccc3c4c(n-2c13)CCN(CC1CC1)C4 [(cyclopropylmethyl) hexahydro]", "Experimental readout": "minimal effective dose", "Unit label": "mg/kg", "Censoring operator": "=", "Meas value": 30}
{"Compound": "c1ccc(CN2CCc3c(c4cccc5c4n3-c3ccccc3CC5)C2)cc1 [benzyl hexahydro]", "Experimental readout": "minimal effective dose", "Unit label": "mg/kg", "Censoring operator": ">", "Meas value": 300}
{"Compound": "c1ccc(CN2CC[C@@H]3[C@@H](C2)c2cccc4c2N3c2ccccc2CC4)cc1 (relative stereo) [Example 6]", "Experimental readout": "minimal effective dose", "Unit label": "mg/kg", "Censoring operator": "=", "Meas value": 49}
{"Compound": "CC(C)CN1CC[C@@H]2[C@@H](C1)c1cccc3c1N2c1ccccc1CC3 (relative stereo) [Example 5]", "Experimental readout": "minimal effective dose", "Unit label": "mg/kg", "Censoring operator": "=", "Meas value": 2}
{"Compound": "c1ccc2c(c1)CCc1cccc3c1N2[C@H]1CCN(C[C@H]2[C@@H]4CCCC[C@@H]42)C[C@H]31 (relative stereo) [Example 7]", "Experimental readout": "minimal effective dose", "Unit label": "mg/kg", "Censoring operator": "=", "Meas value": 3}
{"Compound": "CCN1CCc2c(c3cccc4c3n2-c2ccccc2CC4)C1 [ethyl hexahydro]", "Experimental readout": "minimal effective dose", "Unit label": "mg/kg", "Censoring operator": ">", "Meas value": 300}
{"Compound": "c1ccc2c(c1)CCc1cccc3c1N2[C@@H]1CCN(CC2CC2)C[C@@H]31 (relative stereo) [Example 2]", "Experimental readout": "minimal effective dose", "Unit label": "mg/kg", "Censoring operator": "=", "Meas value": 3}
{"Compound": "CN1CCc2c(c3cccc4c3n2-c2ccccc2CC4)C1 [methyl hexahydro]", "Experimental readout": "minimal effective dose", "Unit label": "mg/kg", "Censoring operator": "=", "Meas value": 300}

====

Reported values of minimal effective dose for individual entries
# Test system: locomotor activity
# Method summary: Decreased Locomotor Activity (L.M.A.), mouse
# Assay type: in vivo
# Experimental context: mouse, po; minimal effective dose; read-out: L.M.A. MED

{"Molecule": "CN1CCc2c(c3cccc4c3n2-c2ccccc2CC4)C1 [methyl hexahydro]", "minimal effective dose": "10 mg/kg"}
{"Molecule": "CCN1CCc2c(c3cccc4c3n2-c2ccccc2CC4)C1 [ethyl hexahydro]", "minimal effective dose": "30 mg/kg"}
{"Molecule": "c1ccc2c(c1)CCc1cccc3c1N2[C@@H]1CCN(CC2CC2)C[C@@H]31 (relative stereo) [Example 2]", "minimal effective dose": "3 mg/kg"}
{"Molecule": "c1ccc2c(c1)CCc1cccc3c1N2[C@H]1CCN(C[C@H]2[C@@H]4CCCC[C@@H]42)C[C@H]31 (relative stereo) [Example 7]", "minimal effective dose": "3 mg/kg"}
{"Molecule": "CC(C)CN1CC[C@@H]2[C@@H](C1)c1cccc3c1N2c1ccccc1CC3 (relative stereo) [Example 5]", "minimal effective dose": "2 mg/kg"}

====

# Tested on: conditioned avoidance response
# Method summary: Dog Conditioned Avoidance Response (C.A.R.)
# Format: in vivo
# Experimental context: Canis lupus familiaris; dog, po; 5 or more incorrect responses in 50% of animals; 1, 2, and 4 hours; read-out: C.A.R. ED50

{"Compound": "c1ccc2c(c1)CCc1cccc3c1N2[C@@H]1CCN(CC2CC2)C[C@@H]31 (relative stereo)", "Target of assay": "conditioned avoidance response", "ED50": "3 mg/kg"}
{"Compound": "CCN1CCc2c(c3cccc4c3n2-c2ccccc2CC4)C1 [ethyl hexahydro]", "Target of assay": "conditioned avoidance response", "ED50": "> 30 mg/kg"}
{"Compound": "c1ccc2c(c1)CCc1cccc3c4c(n-2c13)CCN(CC1CC1)C4 [(cyclopropylmethyl) hexahydro]", "Target of assay": "conditioned avoidance response", "ED50": "> 30 mg/kg"}
{"Compound": "CN1CCc2c(c3cccc4c3n2-c2ccccc2CC4)C1 [methyl hexahydro]", "Target of assay": "conditioned avoidance response", "ED50": "> 30 mg/kg"}

From: patent US3932650A
